Just for reference, patent US20210244721A1 is where these values come from.

Exercise: state measured pEC50 for each of the compounds provided.
test system: EV-D68 US/KY/14-18953 virus; experiment: CPE assay, EV-D68 US/KY/14-18953 in RD cells; type: cell-based, Enterovirus D68 (EV-D68); conditions: Enterovirus D, EVD68, RD, EV-D68 US/KY/14-18953, RD cells, CPE assay; read-out: EC50
Reminder that pEC50 means the negative base-10 logarithm of the concentration expressed in mol/L.

For CC(CN)NC(=O)c1cc(-c2cccs2)nc2ccccc12 (stereo not shown) , what is its reported pEC50?
6.30

For O=C(NC1CNC1)c1cc(-c2ccc(F)cc2)nc2ccccc12 , what is its reported pEC50?
5.96

For O=C(NCC1CCCNC1)c1cc(-c2ccccc2)nc2ccccc12 (stereo not shown) , what is its reported pEC50?
5.15

For CN1CC(NC(=O)c2cc(-c3ccccc3)nc3ccccc23)C1 , what is its reported pEC50?
5.54

For CNCCCNC(=O)c1cc(-c2ccccc2)nc2ccccc12 , what is its reported pEC50?
5.05

For O=C(NCCC1CCCN1)c1cc(-c2ccccc2)nc2ccccc12 (stereo not shown) , what is its reported pEC50?
5.22

For NCCNC(=O)c1cc(-c2ccco2)nc2ccccc12 , what is its reported pEC50?
5.36

For NCCNC(=O)c1cc(-c2ccccc2)nc2ccccc12 , what is its reported pEC50?
5.92

* * *

test system: RD cells; assay: Cytotoxicity, neutral red method, RD cells; settings: Table 6; RD cells
metric.name: CC50 (µM)
Report the value in µM with no unit label.

For CN(C)CCNC(=O)c1cc(-c2ccccc2)nc2ccc(Cl)cc12 [Compound 15a] , what is its reported CC50?
14.3

For CCN(CC)CCNC(=O)c1cc(-c2ccccc2)nc2ccc(F)cc12 [Compound 19b] , what is its reported CC50?
24.9

For COc1ccc2nc(-c3ccccc3)cc(C(=O)NCCN(C)C)c2c1 [Compound 15c] , what is its reported CC50?
31.8

For CCN(CC)CCNC(=O)c1cc(-c2ccccc2)nc2ccc(Cl)cc12 [Compound 15b] , what is its reported CC50?
13.5

For CN(C)CCNC(=O)c1cc(-c2ccccc2)nc2ccc(F)cc12 [Compound 19a] , what is its reported CC50?
38.8

For CCN(CC)CCNC(=O)c1cc(-c2ccccc2)nc2ccc(OC)cc12 [Compound 15d] , what is its reported CC50?
27.5

* * *

experiment: Mouse microsomal stability; type: in vitro ADME; settings: mouse liver microsomes, scaled to liver
metric.name: CLint scaled at 1 μM
Write the numeric value and append its unit.

For CN(C)CCNC(=O)c1cc(-c2ccccc2)nc2ccccc12 [drawing 181] , what is its reported CLint scaled at 1 μM?
246 mL/min/kg

* * *

test system: RD cells; assay: Cytotoxicity, neutral red method, RD cells; details: RD cells, neutral red method
Consider the cut-off 50 µM. If the recorded CC50 is strictly smaller, the label is y; if not, the label is n.

In plain terms, does CC(C)Oc1cc(C(=O)NCCN2CCN(C)CC2)c2ccccc2n1 come in under 50 µM for CC50?
n

In plain terms, does O=C(NCCN1CCCC1)c1cc(-c2ccccc2)nc2ccccc12 [Compound 10g] come in under 50 µM for CC50?
y

In plain terms, does CC(C)Oc1cc(C(=O)NCCCN(C)C)c2ccccc2n1 come in under 50 µM for CC50?
n

In plain terms, does CCN(CC)CCNC(=O)c1cc(OC)nc2ccccc12 come in under 50 µM for CC50?
n

In plain terms, does CCOCCOc1cc(C(=O)NCCN(CC)CC)c2ccccc2n1 come in under 50 µM for CC50?
n

In plain terms, does O=C(NCCN1CCCC1)c1cc(-c2cccs2)nc2ccccc12 [drawing 130] come in under 50 µM for CC50?
y

In plain terms, does CCN(CC)CCNC(=O)c1cc(-c2ccccc2OC)nc2ccccc12 come in under 50 µM for CC50?
n

In plain terms, does CCN(CC)CCNC(=O)c1cc(-c2ccc(CN3CCOCC3)cc2)nc2ccccc12 come in under 50 µM for CC50?
n

* * *

system: RD cells; experiment: Cytotoxicity, neutral red method, RD cells; details: RD cells, neutral red method
Exercise: state measured CC50 for each of the compounds provided.

Value wanted: CC50 (RD cells) of entry CCC(C)Oc1cc(C(=O)NCCN(CC)CC)c2ccccc2n1 (stereo not drawn)
15.7 µM

Value wanted: CC50 (RD cells) of entry CCN(CC)CCNC(=O)c1cc(-c2ccncc2)nc2ccccc12
174 µM

Value wanted: CC50 (RD cells) of entry CCN(CC)CCNC(=O)c1cc(OCC(F)(F)F)nc2ccccc12
33.1 µM

Value wanted: CC50 (RD cells) of entry NNC(=O)c1cc(-c2ccccc2)nc2ccccc12 [Compound 10d, 2-phenylquinoline-4-carbohydrazide]
> 300 µM

Value wanted: CC50 (RD cells) of entry NNC(=O)c1cc(-c2cccs2)nc2ccccc12 [Compound 12e]
> 100 µM

Value wanted: CC50 (RD cells) of entry CCN(CC)CCNC(=O)c1cc(OC2CCCC2)nc2ccccc12
11.7 µM

* * *

tested on: SH-SY5Y cells; assay: Cytotoxicity in SH-SY5Y cells
metric.name: CC50 (µM)
Report the value in µM with no unit label.

Value wanted: CC50 (SH-SY5Y cells) of entry O=C(NCCN1CCCC1)c1cc(-c2cccs2)nc2ccccc12 [drawing 134]
93.3

Value wanted: CC50 (SH-SY5Y cells) of entry CN(C)CCNC(=O)c1cc(-c2cccs2)nc2ccccc12 [drawing 133]
136

* * *

tested on: RD cells; experiment: Cytotoxicity, neutral red method, RD cells; conditions: RD cells, neutral red method
Exercise: state measured CC50 for each of the compounds provided.

For CN(C)c1ccc(NC(=O)c2cc(-c3ccccc3)nc3ccccc23)cc1 [Compound 10f] , what is its reported CC50?
> 350 µM

For N=C(N)NC(=O)c1cc(-c2ccccc2)nc2ccccc12 [Compound 10e] , what is its reported CC50?
> 250 µM

For CC(C)Oc1cc(C(=O)NCCN2CCOCC2)c2ccccc2n1 , what is its reported CC50?
> 250 µM

* * *

tested on: EV-D68 US/KY/14-18953 virus; test: CPE assay, EV-D68 US/KY/14-18953 in RD cells; format: cell-based, Enterovirus D68 (EV-D68); conditions: Enterovirus D, EVD68, RD, EV-D68 US/KY/14-18953, RD cells, CPE assay; read-out: EC50
Exercise: state measured pEC50 for each of the compounds provided.
Reminder that pEC50 means the negative base-10 logarithm of the concentration expressed in mol/L.

Value wanted: pEC50 (EV-D68 US/KY/14-18953 virus) of entry O=C(NCC1(O)CNC1)c1cc(-c2ccccc2)nc2ccccc12 [Compound 6ah]
5.29

Value wanted: pEC50 (EV-D68 US/KY/14-18953 virus) of entry [2H]c1c([2H])c([2H])c(-c2cc(C(=O)NCCN)c3ccccc3n2)c([2H])c1[2H] [Compound 6at]
5.66

Value wanted: pEC50 (EV-D68 US/KY/14-18953 virus) of entry CN(C)CCNC(=O)c1cc(-c2c(F)c(F)c(F)c(F)c2F)nc2ccccc12 [Compound 6be]
4.97

* * *

Exercise: state measured CC50 at 3 days for each of the compounds provided.
assay: Cytotoxicity, neutral red method, RD cells; settings: human, RD (rhabdomyosarcoma) cells
Report the value in µM with no unit label.

For O=C(NCC1CCCNC1)c1cc(-c2ccccc2)nc2ccccc12 (stereo not shown) , what is its reported CC50 at 3 days?
30.1

For CC(CN)NC(=O)c1cc(-c2ccccc2)nc2ccccc12 (stereo not shown) , what is its reported CC50 at 3 days?
89.1

For O=C(NCC1CNC1)c1cc(-c2ccccc2)nc2ccccc12 , what is its reported CC50 at 3 days?
43.2
